EXPERIMENT NOTES: Drug uptake in human MG63 cells at 1 uM after 5 mins by HPLC analysis
Assay type: ADME, cell-based
REPORTED CONDITIONS: mg-63, 5 min
QUANTITY KIND: Drug uptake (%)

Please review the following examples before continuing.
MOL | NUMERIC READOUT
C=C1[C@H](O)CC(=C/C=C2\CCC[C@]3(C)[C@@H]([C@H](C)CC#C[C@@H](O)C45CC6CC(CC(C6)C4)C5)CC[C@@H]23)C[C@H]1O | 6.1
C=C1/C(=C\C=C2/CCC[C@]3(C)[C@@H]([C@H](C)CC#C[C@@H](O)C45CC6CC(CC(C6)C4)C5)CC[C@@H]23)C[C@@H](O)C[C@@H]1O | 3.1

1 = C=C1/C(=C\C=C2/CCC[C@]3(C)[C@@H]([C@H](C)CCCC(C)(C)O)CC[C@@H]23)C[C@@H](O)C[C@@H]1O
2 = C=C1/C(=C\C=C2/CCC[C@]3(C)[C@@H]([C@H](C)CC#C[C@H](O)C45CC6CC(CC(C6)C4)C5)CC[C@@H]23)C[C@@H](O)C[C@@H]1O
Which one would you say has the larger Drug uptake value: 1 , or 2 ? Let me know the label of the one you choose.
2
(2: 6.9%, 1: 3.4%)

meta.source: ChEMBL document CHEMBL4130637
